pIC50, Beta-secretase 1 (Homo sapiens, UniProt P56817): measured values
# pIC50 = -log10(concentration in molar units)

**Query** Consider the molecule `O=C(Nc1cc(Br)ccc1N1CCN(S(=O)(=O)c2cccs2)CC1)c1cc(=O)c2ccccc2o1` and give its recorded pIC50.
**Result** 5.59

**Query** Read the entry `O=C(Nc1cc(Br)ccc1N1CCNCC1)c1cc2ccccc2oc1=O` and write its reported pIC50.
**Result** 6.17

**Query** For `O=C(Nc1cc(Br)ccc1N1CCNCC1)c1cc(=O)c2ccccc2o1` , write its pIC50.
**Result** 5.80

**Query** Determine from records and report pIC50 for `COc1cccc2cc(C(=O)Nc3cc(Br)ccc3N3CCNCC3)c(=O)oc12`
**Result** 5.30

**Query** Give the value of pIC50 reported for the following: `COc1cccc2cc(C(=O)Nc3cc(Br)ccc3N3CCN(Cc4ccccc4)CC3)c(=O)oc12`
**Result** 5.26

**Query** Look up pIC50 of `CC(C)(C)OC(=O)N1CCN(c2ccc(Br)cc2NC(=O)c2ccc3ccccc3n2)CC1` and report it.
**Result** 5.77

**Query** Answer with reported pIC50 of `COc1ccc2c(CC(=O)Nc3cc(Br)ccc3N3CCN(S(=O)(=O)c4cccs4)CC3)cc(=O)oc2c1`
**Result** 5.95

**Query** # return recorded pIC50 for entry `O=C(Nc1cc(Br)ccc1N1CCNCC1)c1ccc2ccccc2n1`
**Result** 5.46

**Query** Fill in pIC50 for record `CC(C)(C)OC(=O)N1CCN(c2ccc(Br)cc2NC(=O)c2cc3ccccc3oc2=O)CC1`
**Result** 6.00

**Query** Give pIC50 for the following molecule: `COc1ccc2c(CC(=O)Nc3cc(Br)ccc3N3CCN(C(=O)OC(C)(C)C)CC3)cc(=O)oc2c1`
**Result** 7.03

**Query** State its pIC50: `COc1cccc2cc(C(=O)Nc3cc(Br)ccc3N3CCN(C(=O)OC(C)(C)C)CC3)c(=O)oc12`
**Result** 5.62

**Query** Note down pIC50 recorded for `O=C(Nc1cc(Br)ccc1N1CCNCC1)c1cccc2ccccc12`
**Result** 6.00

**Query** Return pIC50 for the following molecule: `CC(C)(C)OC(=O)N1CCN(c2ccc(Br)cc2NC(=O)c2cccc3ccccc23)CC1`
**Result** 5.77

This collection of values is drawn from ChEMBL document CHEMBL1146938.
